- TARGET_OR_SYSTEM: AChE (EC Number: 3.1.1.7.) (Homo sapiens)
- Sequence (P22303 32-614): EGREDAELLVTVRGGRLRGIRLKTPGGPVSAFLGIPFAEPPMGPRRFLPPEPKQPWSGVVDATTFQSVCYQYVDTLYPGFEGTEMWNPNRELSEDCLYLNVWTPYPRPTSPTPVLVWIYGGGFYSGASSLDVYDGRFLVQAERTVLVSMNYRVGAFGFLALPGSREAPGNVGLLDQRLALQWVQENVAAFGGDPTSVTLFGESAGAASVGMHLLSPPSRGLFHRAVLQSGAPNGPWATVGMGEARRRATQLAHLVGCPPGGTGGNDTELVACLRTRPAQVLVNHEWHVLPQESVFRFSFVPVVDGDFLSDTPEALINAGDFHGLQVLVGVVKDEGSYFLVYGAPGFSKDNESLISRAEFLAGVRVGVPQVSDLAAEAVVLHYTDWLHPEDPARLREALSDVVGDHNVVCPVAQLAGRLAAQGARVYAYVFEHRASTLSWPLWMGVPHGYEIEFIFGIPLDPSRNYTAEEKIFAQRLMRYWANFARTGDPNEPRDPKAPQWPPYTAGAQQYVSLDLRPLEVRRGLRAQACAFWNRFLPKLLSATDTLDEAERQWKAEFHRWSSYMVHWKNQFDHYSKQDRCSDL
ASSAY_READOUT: IC50 (nM)
Value expressed in nM; do not type the unit.

*Q* Give measured IC50 for O=C(O)c1ccc(-n2nc(-c3ccccc3O)nc2-c2ccccc2O)cc1 [Compound 9, deferasirox, reference compound] (AChE (EC Number: 3.1.1.7.) (Homo sapiens)).
*A* 430

* * *

- TARGET_OR_SYSTEM: 5-lipoxygenase (5-LOX)
- EXPERIMENT_DESCRIPTION: 5-Lipoxygenase inhibitory assay
- Type: biochemical
- EXPERIMENTAL_CONDITIONS: read-out: IC50 (μM) ± SEM 5-LOX
ASSAY_READOUT: IC50

*Q* Look up IC50 of O=C(O)c1ccc(-n2nc(-c3ccccc3O)nc2-c2ccccc2O)cc1 [Compound 9, deferasirox, reference compound] and report it.
*A* 1.28 µM
